Recorded measurements of melting point, one per entry
measurement-label: melting point

# compound, endpoint-value
data = [
    ("COc1ccc(C(=O)c2ccc(OCc3nc(-c4ccccc4)oc3C)cc2C)c(O)c1", "109 to 110 °C"),
    ("CCc1ccc(C(=O)Sc2ccccn2)cc1", "48 to 50 °C"),
    ("CN(C)CCN1C(=O)C(N)C(=O)N(CC2CCCCC2)c2ccccc21 (stereo unspecified)", "94 to 95 °C"),
    ("N#Cc1cnc2sc(C#Cc3ccccn3)cc2c1Nc1ccc2[nH]ccc2c1", "> 260 °C"),
    ("O=C(C[C@@H](CCCC1CCCCC1)c1nc(CNC2CCCC2)co1)NO", "124 to 127 °C"),
    ("O=C1CCCCC1c1ccc(F)cc1 (stereo unspecified)", "56 to 59 °C"),
    ("CC(=O)Nc1c(-c2ccccc2C)nc2c3ccccc3ccn12", "> 270 °C"),
    ("CCOC(=O)N1CCN(c2nc(C)nc3c2OCC(=O)N3CC(N)=O)CC1", "225 to 227 °C"),
    ("Cc1ccc(CC(C(=O)C(Cc2ccc(C)cc2C)N2C(=O)c3ccccc3C2=O)N2C(=O)c3ccccc3C2=O)c(C)c1 (stereo unspecified)", "112 °C"),
    ("CC(=O)c1cnc2c(c1)oc(=O)n2CCc1ccccn1", "138 to 140 °C"),
    ("O=C(CCCl)n1ccc2ccccc21", "67 °C"),
    ("Cc1coc(NC(=S)Nc2c(C)cccc2Cl)n1", "222 °C"),
    ("CC(C)=CC(=S)Nc1ccccc1", "175 °C"),
    ("CC(=NNC=O)c1ccncc1Cl", "175 °C"),
    ("Cc1oc(-c2ccccc2)nc1COc1cccc(C=O)c1", "67 to 68 °C"),
    ("CCc1cccc(CC(=O)O)c1OCCCc1cn(-c2ccc(C(F)(F)F)cn2)nc1C(C)(C)C", "98 to 99 °C"),
    ("OCCN1CCN(c2onc3c2CCc2ccccc2-3)CC1", "137 to 138 °C"),
    ("N[C@@H]1CCN(c2ccc3c(NC(=O)CC4CCCCC4)c(Cl)ccc3n2)C1", "201 to 206 °C"),
    ("O=S(=O)(c1ccc(O)cc1)c1c(-c2ccccc2)cn2ccccc12", "234 °C"),
    ("COC(=O)C1(C)CN(C(=O)Nc2ccc(Cl)cn2)N=C1c1ccc(Cl)cc1 (stereo unspecified)", "130 to 146 °C"),
    ("CC[C@H](C)C(=O)c1ccc(-c2ccc(OC)cc2)cc1", "119 to 120 °C"),
    ("CC(c1cccc2c1C(=O)NS2(=O)=O)[Si](C)(C)C (stereo unspecified)", "123 to 125 °C"),
    ("O=C1NC(=O)c2c1cc1ccc3c(c1c2-c1ccncc1)OCO3", "299 to 302 °C"),
    ("O=C(O)COc1ccc(C(=C2SCCCS2)c2ccccc2)cc1", "176 to 177 °C"),
    ("CCn1c(Oc2cccc(NC=O)c2)nnc1[C@@H](C)NS(=O)(=O)c1ccc(Cl)c(Cl)c1", "168 to 170 °C"),
    ("COC(=O)Cc1sc(Sc2cc(C(=O)OC)nc(SC)n2)nc1C", "131 to 133 °C"),
    ("CCC(=O)N(Cc1ccc(OC(F)(F)F)cc1)c1cc(Cl)cc(-c2nnn[nH]2)c1", "144 °C"),
    ("Cc1c(C(=O)Nc2ccc(N3CCC(N4CCCCC4)CC3)c(C#N)c2)cnn1-c1ccc(F)cc1", "237 to 238 °C"),
    ("Cc1cc(F)ccc1CCC(=O)O", "112 to 113 °C"),
    ("Cc1cc(Nc2nccc(-c3sc(-c4cccnc4)nc3C)n2)ccc1N1CCCCC1", "200 to 201 °C"),
    ("CC(=O)NCC(NC(C)=O)c1ccccc1 (stereo unspecified)", "155 to 156 °C"),
    ("Cn1nc(-c2nc(C#N)c(C#N)nc2-c2ccccc2)ccc1=O", "210 to 212 °C"),
    ("Cc1nn(-c2ccc(C#N)c(Cl)c2)c(C)c1Oc1ccc(C(=O)N2CCOCC2)cc1", "156 to 157 °C"),
    ("CCCc1c(SCCCOc2ccc3c(=O)cc(C(=O)OCC)oc3c2CCC)ccc(C(C)=O)c1N", "103 to 104 °C"),
    ("O=C1CCN(Cc2ccccc2O)CC1C(c1ccc(F)cc1)c1ccc(F)cc1 (stereo unspecified)", "151 to 152 °C"),
    ("CC(C)(C)c1cc(C(O)C#Cc2ccc(C(=O)O)cc2)cc(C(C)(C)C)c1OCOCC[Si](C)(C)C (stereo unspecified)", "155 to 156 °C"),
    ("COc1ccc(CCNC(=O)c2ccc3n2Cc2ccccc2N(C(=O)c2ccc(-c4ccccc4C)c(C)c2)C3)cc1OC", "130 to 136 °C"),
    ("COc1cc2sc(C3=NNC(=O)CC3C)cc2cc1OCCCN1CCCCC1 (stereo unspecified)", "198 to 200 °C"),
    ("CCCc1nc2ccccn2c(=O)c1-c1ccc(Cl)cc1", "109 to 110 °C"),
    ("Cc1c(C2CCN(C)CC2)[nH]c(=O)c2ccccc12", "202 to 204 °C"),
    ("Cc1cc(Nc2ccccc2)nc(N)n1", "179 to 180 °C"),
]

Data provenance: a melting point compilation (Tetko et al.; mined from patent text by program, amines drawn as free bases though some values may be those of a salt)
